# MEASURED ON: T1, TrkA protein on HEK-293T-TrkA cells or NIH-3T3-TrkA cells (human, UniProt P04629 33-796)
# T1 construct: whole, on cells; Printed only as TrkA for these cells; also called TrkA protein on the membrane of NIH-3T3-TrkA cells
# PROTOCOL NOTES: flow cytometry on HEK-293T-TrKA cells
MEASURE NAME: EC50

Look up and report measured EC50 for this entry: 4H4 chimeric antibody (antibody, human IgG4 S228P, kappa, F234A L235A, V domains shown, expressed in CHO cells) VH: EVQLQQSGPELVKPGASMKISCKASGYSFTGYTMNWVKQSHGKNLEWIGLINPYNGGTRYNQKFKGKATLTVDKSSSTAYMELLSLTSEDSAVYYCASSSYRNDGNWYFDVWGAGTTVTVSS VL: DIVMTQSPAIMSASPGEKVTMTCSASSSVSYMHWYQQKSGTSPKRWIYDTSKLASGVPARFSGSGSGTSYSLTISSMETEDAATYYCQQWSSNPPTFGGGTKLELKR
< 1.5 µg/mL
